- Test system: Escherichia coli
- test description: Antiadherent activity against P-fimbriated Escherichia coli in human erythrocyte assessed as suppression of agglutination using latex beads coated with P receptor analogue at 0.3 mg/ml
- Format: functional, organism-based
Active and inactive are the calls of the source. The calls are words filed in the database; no cut-off is given here.
quantity: Activity

Some entries whose results are on file:
Oc1cc(O)c2c(c1)O[C@H](c1ccc(O)c(O)c1)[C@H](O)C2; inactive
Oc1cc(O)c2c(c1)O[C@H](c1ccc(O)c(O)c1)[C@H](O)[C@H]2c1c(O)cc(O)c2c1O[C@H](c1ccc(O)c(O)c1)[C@H](O)C2; inactive
Oc1cc(O)c2c(c1)O[C@@]1(c3ccc(O)c(O)c3)Oc3cc(O)c4c(c3[C@@H]2[C@H]1O)O[C@H](c1ccc(O)c(O)c1)[C@H](O)[C@H]4c1c(O)cc(O)c2c1O[C@H](c1ccc(O)c(O)c1)[C@H](O)C2; Active
Oc1cc(O)c2c(c1)O[C@H](c1ccc(O)c(O)c1)[C@H](O)[C@H]2c1c(O)cc2c(c1O)[C@@H]1c3c(cc(O)c4c3O[C@H](c3ccc(O)c(O)c3)[C@H](O)C4)O[C@](c3ccc(O)c(O)c3)(O2)[C@@H]1O; Active
Oc1cc(O)c2c(c1)O[C@H](c1ccc(O)c(O)c1)[C@H](O)[C@H]2c1c(O)cc(O)c2c1O[C@@]1(c3ccc(O)c(O)c3)Oc3cc(O)c4c(c3[C@@H]2[C@H]1O)O[C@H](c1ccc(O)c(O)c1)[C@H](O)C4; inactive

Reported Activity of "Oc1cc(O)c2c(c1)O[C@@]1(c3ccc(O)c(O)c3)Oc3cc(O)c4c(c3[C@@H]2[C@H]1O)O[C@H](c1ccc(O)c(O)c1)[C@H](O)C4" : inactive

====

- System: Escherichia coli
- test description: Antiadherent activity against P-fimbriated Escherichia coli in human erythrocyte assessed as suppression of agglutination using latex beads coated with P receptor analogue at 2.4 mg/ml
- Assay type: functional, organism-based
Activity calls are given as the source filed them. The calls are words filed in the database; no cut-off is given here.
quantity: Activity

Some entries whose results are on file:
Oc1cc(O)c2c(c1)O[C@H](c1ccc(O)c(O)c1)[C@H](O)C2; inactive
Oc1cc(O)c2c(c1)O[C@H](c1ccc(O)c(O)c1)[C@H](O)[C@H]2c1c(O)cc(O)c2c1O[C@H](c1ccc(O)c(O)c1)[C@H](O)C2; inactive
Oc1cc(O)c2c(c1)O[C@H](c1ccc(O)c(O)c1)[C@H](O)[C@H]2c1c(O)cc2c(c1O)[C@@H]1c3c(cc(O)c4c3O[C@H](c3ccc(O)c(O)c3)[C@H](O)C4)O[C@](c3ccc(O)c(O)c3)(O2)[C@@H]1O; Active
Oc1cc(O)c2c(c1)O[C@@]1(c3ccc(O)c(O)c3)Oc3cc(O)c4c(c3[C@@H]2[C@H]1O)O[C@H](c1ccc(O)c(O)c1)[C@H](O)C4; Active
Oc1cc(O)c2c(c1)O[C@@]1(c3ccc(O)c(O)c3)Oc3cc(O)c4c(c3[C@@H]2[C@H]1O)O[C@H](c1ccc(O)c(O)c1)[C@H](O)[C@H]4c1c(O)cc(O)c2c1O[C@H](c1ccc(O)c(O)c1)[C@H](O)C2; Active

Next up:
Reported Activity of "Oc1cc(O)c2c(c1)O[C@H](c1ccc(O)c(O)c1)[C@H](O)[C@H]2c1c(O)cc(O)c2c1O[C@@]1(c3ccc(O)c(O)c3)Oc3cc(O)c4c(c3[C@@H]2[C@H]1O)O[C@H](c1ccc(O)c(O)c1)[C@H](O)C4" : Active
